Origin of the recorded values: patent US20210186879A1

Assay: Solubility in aqueous ethanol (UV method)
Assay type: physicochemical
Details: irinotecan alkane sulfonates, 30% ethanol (v/v) per table title

- Compound: "CCCCCCCCCCS(=O)(=O)O.CCc1c2c(nc3ccc(OC(=O)N4CCC(N5CCCCC5)CC4)cc13)-c1cc3c(c(=O)n1C2)COC(=O)C3(O)CC (stereo not shown) [irinotecan alkane sulfonate n=10]"
  Solubility: "834.8 µg/mL"
- Compound: "CCCCCCCCCCCCCCCCS(=O)(=O)O.CCc1c2c(nc3ccc(OC(=O)N4CCC(N5CCCCC5)CC4)cc13)-c1cc3c(c(=O)n1C2)COC(=O)C3(O)CC (stereo not shown) [irinotecan alkane sulfonate n=16]"
  Solubility: "14.76 µg/mL"
- Compound: "CCCCCCCCCCCCS(=O)(=O)O.CCc1c2c(nc3ccc(OC(=O)N4CCC(N5CCCCC5)CC4)cc13)-c1cc3c(c(=O)n1C2)COC(=O)C3(O)CC (stereo not shown) [irinotecan alkane sulfonate n=12]"
  Solubility: "154.5 µg/mL"
- Compound: "CCCCCCCCCCCCCCS(=O)(=O)O.CCc1c2c(nc3ccc(OC(=O)N4CCC(N5CCCCC5)CC4)cc13)-c1cc3c(c(=O)n1C2)COC(=O)C3(O)CC (stereo not shown) [irinotecan alkane sulfonate n=14]"
  Solubility: "70.64 µg/mL"

----------
Assay: In vivo distribution of doxycycline in lung and blood serum of Wistar rats
Details: 30 min, relative to control CI-DOX (1)
Lung tissue Difference values by entry

- Compound: "CC1c2cccc(O)c2C(O)=C2C(=O)C3(O)C(O)=C(C(N)=O)C(=O)C(N(C)C)C3C(O)C21.CCCCCCCCCCCCS(=O)(=O)O (stereo not shown)"
  Lung tissue Difference: 5.48
- Compound: "CC1c2cccc(O)c2C(O)=C2C(=O)C3(O)C(O)=C(C(N)=O)C(=O)C(N(C)C)C3C(O)C21.CCCCCCCCCCCCCCCCS(=O)(=O)O (stereo not shown)"
  Lung tissue Difference: 11.74
- Compound: "CC1c2cccc(O)c2C(O)=C2C(=O)C3(O)C(O)=C(C(N)=O)C(=O)C(N(C)C)C3C(O)C21.CCCCCCCCCCCCOS(=O)(=O)O (stereo not shown)"
  Lung tissue Difference: 3.20
- Compound: "CC1c2cccc(O)c2C(O)=C2C(=O)C3(O)C(O)=C(C(N)=O)C(=O)C(N(C)C)C3C(O)C21.CCCCCCCCCCCCCCOS(=O)(=O)O (stereo not shown)"
  Lung tissue Difference: 9.20

----------
Experiment: In vivo distribution of doxycycline in lung and blood serum of Wistar rats
Conditions: 30 min, relative to control CI-DOX (1)

- Compound: "CC1c2cccc(O)c2C(O)=C2C(=O)C3(O)C(O)=C(C(N)=O)C(=O)C(N(C)C)C3C(O)C21.CCCCCCCCCCCCOS(=O)(=O)O (stereo not shown) [doxycycline CnH2n+1OSO3^− n=12]"
  Blood serum Difference: 1.10
- Compound: "CC1c2cccc(O)c2C(O)=C2C(=O)C3(O)C(O)=C(C(N)=O)C(=O)C(N(C)C)C3C(O)C21.CCCCCCCCCCCCCCOS(=O)(=O)O (stereo not shown) [doxycycline CnH2n+1OSO3^− n=14]"
  Blood serum Difference: 0.39
- Compound: "CC1c2cccc(O)c2C(O)=C2C(=O)C3(O)C(O)=C(C(N)=O)C(=O)C(N(C)C)C3C(O)C21.CCCCCCCCCCCCCCCCS(=O)(=O)O (stereo not shown) [doxycycline CnH2n+1SO3^− n=16]"
  Blood serum Difference: 0.22
- Compound: "CC1c2cccc(O)c2C(O)=C2C(=O)C3(O)C(O)=C(C(N)=O)C(=O)C(N(C)C)C3C(O)C21.CCCCCCCCCCCCS(=O)(=O)O (stereo not shown) [doxycycline CnH2n+1SO3^− n=12]"
  Blood serum Difference: 0.53

----------
Test: In vivo distribution of doxorubicin in lung and blood serum of Wistar rats
Conditions: 5 mg/kg i.v. single bolus, 4 hours, ± SD
Blood serum DOX values by entry

- Compound: "CCCCCCCCCCCCS(=O)(=O)O.COc1cccc2c1C(=O)c1c(O)c3c(c(O)c1C2=O)CC(O)(C(=O)CO)CC3OC1CC(N)C(O)C(C)O1 (stereo not shown) [doxorubicin CnH2n+1SO3^− n=12]"
  Blood serum DOX: "0.014 ± 0.003 µg/kg"
- Compound: "CCCCCCCCCCCCCCOS(=O)(=O)O.COc1cccc2c1C(=O)c1c(O)c3c(c(O)c1C2=O)CC(O)(C(=O)CO)CC3OC1CC(N)C(O)C(C)O1 (stereo not shown) [doxorubicin CnH2n+1OSO3^− n=14]"
  Blood serum DOX: "0.023 ± 0.009 µg/kg"
- Compound: "CCCCCCCCCCCCCCCCS(=O)(=O)O.COc1cccc2c1C(=O)c1c(O)c3c(c(O)c1C2=O)CC(O)(C(=O)CO)CC3OC1CC(N)C(O)C(C)O1 (stereo not shown) [doxorubicin CnH2n+1SO3^− n=16]"
  Blood serum DOX: "0.019 ± 0.007 µg/kg"
- Compound: "CCCCCCCCCCCCOS(=O)(=O)O.COc1cccc2c1C(=O)c1c(O)c3c(c(O)c1C2=O)C[C@@](O)(C(=O)CO)C[C@@H]3O[C@H]1C[C@H](N)[C@H](O)[C@H](C)O1 [doxorubicin CnH2n+1OSO3^− n=12]"
  Blood serum DOX: "0.021 ± 0.007 µg/kg"

----------
Experiment: In vivo distribution of doxycycline in lung and blood serum of Wistar rats
Details: doxycycline, 3 mg/kg i.v. single bolus, 30 min, ± SD
Quantity Name: Lung tissue DOX

- Molecule: "CC1c2cccc(O)c2C(O)=C2C(=O)C3(O)C(O)=C(C(N)=O)C(=O)C(N(C)C)C3C(O)C21.CCCCCCCCCCCCCCCCS(=O)(=O)O (stereo not shown)"
  Observed Value: "2020 ± 117 ng/mL"
- Molecule: "CC1c2cccc(O)c2C(O)=C2C(=O)C3(O)C(O)=C(C(N)=O)C(=O)C(N(C)C)C3C(O)C21.CCCCCCCCCCCCCCOS(=O)(=O)O (stereo not shown)"
  Observed Value: "1582 ± 101 ng/mL"
- Molecule: "CC1c2cccc(O)c2C(O)=C2C(=O)C3(O)C(O)=C(C(N)=O)C(=O)C(N(C)C)C3C(O)C21.CCCCCCCCCCCCOS(=O)(=O)O (stereo not shown)"
  Observed Value: "551 ± 185 ng/mL"
- Molecule: "CC1c2cccc(O)c2C(O)=C2C(=O)C3(O)C(O)=C(C(N)=O)C(=O)C(N(C)C)C3C(O)C21.CCCCCCCCCCCCS(=O)(=O)O (stereo not shown)"
  Observed Value: "943 ± 600 ng/mL"

----------
Experiment: Solubility in aqueous ethanol (UV method)
Type: physicochemical
Settings: mitoxantrone alkyl sulfates and alkane sulfonates, 30% ethanol (v/v)
Experimental: The mixture was centrifuged at 3000 rpm for 10 min and the supernatant filtered through a 0.2 micrometer filter to remove aggregates of undissolved solid product. The solubility of the compound was determined by a UV method. Particle size analysis was accomplished by laser diffraction method.
Respond with criterion met for Solubility values of 700 µg/mL and above, criterion not met for values below.

- Molecule: "CCCCCCCCOS(=O)(=O)O.CCCCCCCCOS(=O)(=O)O.O=C1c2c(O)ccc(O)c2C(=O)c2c(NCCNCCO)ccc(NCCNCCO)c21 [mitoxantrone CnH2n+1OSO3^− n=8]"
  Label Class: "criterion met"
- Molecule: "CCCCCCCCS(=O)(=O)O.CCCCCCCCS(=O)(=O)O.O=C1c2c(O)ccc(O)c2C(=O)c2c(NCCNCCO)ccc(NCCNCCO)c21 [mitoxantrone CnH2n+1SO3^− n=8]"
  Label Class: "criterion met"
- Molecule: "CCCCCCCCCCS(=O)(=O)O.CCCCCCCCCCS(=O)(=O)O.O=C1c2c(O)ccc(O)c2C(=O)c2c(NCCNCCO)ccc(NCCNCCO)c21 [mitoxantrone CnH2n+1SO3^− n=10]"
  Label Class: "criterion not met"
- Molecule: "CCCCCCCCCCCCCCS(=O)(=O)O.CCCCCCCCCCCCCCS(=O)(=O)O.O=C1c2c(O)ccc(O)c2C(=O)c2c(NCCNCCO)ccc(NCCNCCO)c21 [mitoxantrone CnH2n+1SO3^− n=14]"
  Label Class: "criterion not met"
- Molecule: "CCCCCCCCCCCCCCOS(=O)(=O)O.CCCCCCCCCCCCCCOS(=O)(=O)O.O=C1c2c(O)ccc(O)c2C(=O)c2c(NCCNCCO)ccc(NCCNCCO)c21 [mitoxantrone CnH2n+1OSO3^− n=14]"
  Label Class: "criterion not met"
- Molecule: "CCCCCCCCCCOS(=O)(=O)O.CCCCCCCCCCOS(=O)(=O)O.O=C1c2c(O)ccc(O)c2C(=O)c2c(NCCNCCO)ccc(NCCNCCO)c21 [mitoxantrone CnH2n+1OSO3^− n=10]"
  Label Class: "criterion not met"

----------
Assay: Solubility in aqueous ethanol (UV method)
Format: physicochemical
Settings: doxorubicin alkyl sulfates and alkane sulfonates, 30% ethanol (v/v)

- Compound: "CCCCCCCCCCCCCCCCCCS(=O)(=O)O.COc1cccc2c1C(=O)c1c(O)c3c(c(O)c1C2=O)CC(O)(C(=O)CO)CC3OC1CC(N)C(O)C(C)O1 (stereo not drawn) [doxorubicin CnH2n+1SO3^− n=18]"
  Solubility [µg/mL]: 2.79
- Compound: "CCCCCCCCCCOS(=O)(=O)O.COc1cccc2c1C(=O)c1c(O)c3c(c(O)c1C2=O)CC(O)(C(=O)CO)CC3OC1CC(N)C(O)C(C)O1 (stereo not drawn) [doxorubicin CnH2n+1OSO3^− n=10]"
  Solubility [µg/mL]: 507.7
- Compound: "CCCCCCCCCCCCCCCCS(=O)(=O)O.COc1cccc2c1C(=O)c1c(O)c3c(c(O)c1C2=O)CC(O)(C(=O)CO)CC3OC1CC(N)C(O)C(C)O1 (stereo not drawn) [doxorubicin CnH2n+1SO3^− n=16]"
  Solubility [µg/mL]: 11.94
